- assay.info: GHB toxicokinetic study, i.v. bolus, plasma and urine up to 8 h, noncompartmental analysis
- Format: in vivo, Sprague Dawley rats
- recorded.conditions: female, Sprague Dawley, rat, plasma and urine, iv, 1000 mg/kg, 1000 mg/kg GHB iv; OVX testosterone placebo rats; read-out: CLm – Metabolic clearance

- compound: "O=C(O)CCCO [GHB, Γ-hydroxybutyric acid]"
  uom: "mL/min/kg"
  clearance: 3.1

###

- assay.info: GHB toxicokinetic study, i.v. bolus, plasma and urine up to 8 h, noncompartmental analysis
- Format: in vivo, Sprague Dawley rats
- recorded.conditions: female, Sprague-Dawley, rat, plasma and urine, iv, 1500 mg/kg, 1500 mg/kg GHB + 1mg/kg AR-C 155858 iv; intact female (estrus) rats; read-out: CLR (renal clearance)
- Description: Male and female Sprague Dawley (SD) rats, ovariectomized (OVX) females, and castrated (CST) males were obtained from Charles River (Wilmington, MA, USA) at 8 weeks of age. […] Estrus cycle stages of female rats were monitored daily by vaginal lavage smear, as described in previously published literature. […] GHB in plasma and urine were quantified using a validated liquid chromatography/tandem mass spectrometry (LC/MS/MS) assay that was described previously. […]

- compound: "O=C(O)CCCO [GHB, Γ-hydroxybutyric acid]"
  CL renal, L/h/kg: 0.378
